Source of measurements: patent US20240262795A1

In this section, each of the molecules is paired with its reported IC50.
target of assay: WT FLT3 (Homo sapiens, UniProt P36888)
parameter measured: IC50

C=CC(=O)Nc1cccc(Nc2nc(N3CCC[C@H](NC(=O)c4ccc(C5CC5)cc4)[C@@H]3C)cnc2C(N)=O)c1 [Compound C-1, reference compound]    > 1 nM
CCc1nc(C(N)=O)c(Nc2ccnc(CCNC(=O)[C@H](C)N(C)C(=O)/C=C/CN(C)C)c2)nc1N(C)C(C)C    0.201 to 0.5 nM
C=CC(=O)Nc1cc(Nc2nc(NC3CCOCC3)c(CC)nc2C(N)=O)ccc1N1CCC(N2CCN(C)CC2)CC1 [Compound C-2, reference compound]    0.501 to 1 nM
CCc1nc(C(N)=O)c(Nc2cccc(CCNC(=O)[C@H](C)N(C)C(=O)/C=C/CN(C)C)c2)nc1N(C)C    0.501 to 1 nM
CCc1nc(C(N)=O)c(Nc2cccc(CCNC(=O)CN(C)C(=O)/C=C/CN3CCC3)c2)nc1N(C)CC [Compound 516A]    0.501 to 1 nM
Cc1nc(C(N)=O)c(Nc2cccc(CCNC(=O)[C@H](C)N(C)C(=O)/C=C/CN(C)C)c2)nc1N(C)C(C)C    0.501 to 1 nM

* * *

As shown below, each of these compounds has a reported IC50 value.
target of assay: FLT3-ITD (Homo sapiens, UniProt P36888, DUP595-601)
Construct: purchased Signalchem F-12-12CG-10
assay remarks: FLT3-ITD Lance Ultra TR-FRET kinase assay
Assay type: biochemical
parameter measured: IC50

CCc1nc(Nc2cccc([C@@H](C)CNC(=O)CN(C)C(=O)/C=C/CN(C)C)c2)c(C(N)=O)nc1CC    0.501 to 1 nM
CCc1nc(C(N)=O)c(Nc2cccc(CCNC(=O)[C@H](C)N(C)C(=O)/C=C/CN(C)C)c2)nc1N(C)C    0.201 to 0.5 nM
CCc1nc(C(N)=O)c(Nc2cccc([C@@H](C)CNC(=O)CN(C)C(=O)/C=C/CN3CCC3)c2)nc1CC(C)C    0.501 to 1 nM
Cc1nc(C(N)=O)c(Nc2cccc(CCNC(=O)[C@H](C)N(C)C(=O)/C=C/CN(C)C)c2)nc1N(C)C(C)C    0.501 to 1 nM
CCc1nc(C(N)=O)c(Nc2cccc(CCNC(=O)[C@H](C)NC(=O)/C=C/CN(C)C)c2)nc1NC(C)C    0.501 to 1 nM
CCc1nc(C(N)=O)c(Nc2cccc(CCNC(=O)CN(C)C(=O)/C=C/CN(C)C)c2)nc1N(C)CC    0.101 to 0.2 nM
CCc1nc(C(N)=O)c(Nc2cccc([C@@H](C)CNC(=O)CN(C)C(=O)/C=C/CN3CCC3)c2)nc1C(C)C    0.501 to 1 nM

* * *

Tested on: MOLM-13
assay remarks: Proliferation inhibition, CellTiter-Glo, MOLM-13
Format: cell-based, human
condition notes: Homo sapiens, 96 h; MOLM-13 cells, IC50 (4 days), CellTiter-Glo; read-out: MOLM-13 IC50
parameter measured: IC50

[2H]C([2H])([2H])N(C/C=C/C(=O)N(C)[C@@H](C)C(=O)NCCc1cccc(Nc2nc(N(C)C(C)C)c(CC)nc2C(N)=O)c1)C([2H])([2H])[2H]    < 1 nM
Cc1nc(C(N)=O)c(Nc2cc(F)cc(CCNC(=O)[C@H](C)N(C)C(=O)/C=C/CN(C)C)c2)nc1C1CC1    1 to 10 nM
[2H]C([2H])([2H])N(C(=O)C=C)[C@@H](C)C(=O)NCCc1cccc(Nc2nc(C3CC3)c(CC)nc2C(N)=O)c1    10 to 100 nM
CCc1nc(C(N)=O)c(Nc2cccc(CCNC(=O)[C@H](C)N(C)C(=O)CCCN(C)C)c2)nc1N(C)C(C)C    10 to 100 nM
[2H]C([2H])([2H])N(C/C=C/C(=O)N(C)[C@@H](C)C(=O)NCCc1cccc(Nc2nc(C)c(CC)nc2C(N)=O)c1)C([2H])([2H])[2H]    10 to 100 nM
CCc1nc(C(N)=O)c(Nc2cccc(CCNC(=O)CN(C)C(=O)/C=C/CN3CCC3)c2)nc1OC(C)C    1 to 10 nM

* * *

target of assay: WT FLT3 (Homo sapiens)
Sequence (P36888 564-993 limits assumed): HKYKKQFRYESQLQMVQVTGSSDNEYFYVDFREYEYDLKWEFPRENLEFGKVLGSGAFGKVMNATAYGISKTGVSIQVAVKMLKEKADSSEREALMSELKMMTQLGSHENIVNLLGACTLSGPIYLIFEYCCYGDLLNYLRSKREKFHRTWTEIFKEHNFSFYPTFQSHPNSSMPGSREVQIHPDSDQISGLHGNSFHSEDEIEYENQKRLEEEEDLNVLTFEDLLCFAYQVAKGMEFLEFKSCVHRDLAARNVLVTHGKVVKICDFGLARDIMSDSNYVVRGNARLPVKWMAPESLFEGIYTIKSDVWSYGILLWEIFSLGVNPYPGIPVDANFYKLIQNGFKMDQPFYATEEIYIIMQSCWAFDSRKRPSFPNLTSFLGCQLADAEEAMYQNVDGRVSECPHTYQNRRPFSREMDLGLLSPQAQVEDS
parameter measured: IC50

CCc1nc(C(N)=O)c(Nc2cccc(CCNC(=O)[C@H](C)N(C)C(=O)C#CCN(C)C)c2)nc1N(C)C    0.501 to 1 nM
CCc1nc(C(N)=O)c(Nc2cc(F)cc(CCNC(=O)CN(C)C(=O)/C=C/CN3CCC3)c2)nc1C1CC1    0.201 to 0.5 nM
C=CC(=O)N(C)CC(=O)NCCc1cccc(Nc2nc(N(C)CC)c(CC)nc2C(N)=O)c1    0.201 to 0.5 nM
CCc1nc(C(N)=O)c(Nc2ccnc(CCNC(=O)CN(C)C(=O)/C=C/CN(C)C)c2)nc1N(C)CC    0.501 to 1 nM
C=CC(=O)N(C)[C@@H](C)C(=O)NCCc1cccc(Nc2nc(N(C)C)c(CC)nc2C(N)=O)c1    0.501 to 1 nM
CCc1nc(C(N)=O)c(Nc2cccc(CCNC(=O)[C@@H](C)N(C)C(=O)/C=C/CN(C)C)c2)nc1N(C)C(C)C    > 1 nM
CCOc1nc(Nc2cccc(CCNC(=O)CN(C)C(=O)/C=C/CN3CCC3)c2)c(C(N)=O)nc1CC    0.201 to 0.5 nM
CCc1nc(C(N)=O)c(Nc2cc(F)cc(CCNC(=O)[C@H](C)N(C)C(=O)/C=C/CN(C)C)c2)nc1C1CC1    0.501 to 1 nM
C=CC(=O)Nc1cc(Nc2nc(N[C@H]3CC[C@@](C)(O)CC3)c(CC)nc2C(N)=O)ccc1C [Compound C-3, reference compound]    > 1 nM
CCc1nc(Nc2cccc([C@H](C)CNC(=O)CN(C)C(=O)/C=C/CN3CCC3)c2)c(C(N)=O)nc1CC    > 1 nM
CCc1nc(C(N)=O)c(Nc2ccnc(CCNC(=O)[C@H](C)N(C)C(=O)/C=C/CN(C)C)c2)nc1C1CC1    0.501 to 1 nM
CCc1nc(C(N)=O)c(Nc2ccnc(CCNC(=O)CN(C)C(=O)/C=C/CN3CCC3)c2)nc1C1CC1    > 1 nM
C=CC(=O)N(C)[C@@H](C)C(=O)NCCc1cccc(Nc2nc(N(C)C(C)C)c(CC)nc2C(N)=O)c1    > 1 nM
CCN(C)c1nc(Nc2cccc(CCNC(=O)[C@H](C)N(C)C(=O)/C=C/CN(C)C)c2)c(C(N)=O)nc1C    0.501 to 1 nM

* * *

Tested on: MOLM-13
assay remarks: Proliferation inhibition, CellTiter-Glo, MOLM-13
Type: cell-based, human
condition notes: Homo sapiens, 96 h; MOLM-13 cells, IC50 (4 days), CellTiter-Glo; read-out: MOLM-13 IC50
pIC50: −log10 of the molar value.
parameter measured: pIC50

CCc1nc(C(N)=O)c(Nc2cccc(CCNC(=O)CN(C)C(=O)/C=C/CN3CCC3)c2)nc1N(C)CC [Compound 516A]    > 9.00
Cc1nc(C(N)=O)c(Nc2cccc(CCNC(=O)[C@H](C)N(C)C(=O)/C=C/CN(C)C)c2)nc1N(C)C(C)C [Compound 232]    8.00 to 9.00
CCc1nc(C(N)=O)c(Nc2cccc(C[C@@H](C)NC(=O)[C@H](C)N(C)C(=O)/C=C/CN(C)C)c2)nc1C [Compound 314]    6.30 to 7.00
CCc1nc(C(N)=O)c(Nc2cccc(C[C@@H](C)NC(=O)CN(C)C(=O)/C=C/CN(C)C)c2)nc1C [Compound 311]    6.30 to 7.00

* * *

Test system: MOLM-13
assay remarks: Proliferation inhibition, CellTiter-Glo, MOLM-13
Format: cell-based, human
condition notes: Homo sapiens, 96 h; MOLM-13 cells, IC50 (4 days), CellTiter-Glo; read-out: MOLM-13 IC50
pIC50: −log10 of the molar value.
parameter measured: pIC50

Cc1nc(C(N)=O)c(Nc2cccc(CCNC(=O)[C@H](C)N(C)C(=O)/C=C/CN3CCC3)c2)nc1N(C)C [Compound 230]    8.00 to 9.00
CCc1nc(C(N)=O)c(Nc2cccc([C@@H](C)CNC(=O)[C@H](C)N(C)C(=O)/C=C/CN(C)C)c2)nc1C [Compound 326]    < 6.30
CCc1nc(C(N)=O)c(Nc2cccc(CCNC(=O)[C@H](C)N(C)C(=O)/C=C/CN3CCC3)c2)nc1C [Compound 202]    8.00 to 9.00
C=CC(=O)N(C)CC(=O)NCCc1cccc(Nc2nc(N(C)C(C)C)c(CC)nc2C(N)=O)c1 [Compound 308]    8.00 to 9.00
CCc1nc(C(N)=O)c(Nc2ccc(N3CCC(N4CCN(C)CC4)CC3)c(OC)c2)nc1NC1CCOCC1 [Gilteritinib, gilteritinib, reference compound]    8.00 to 9.00
CCc1nc(Nc2cccc([C@H](C)CNC(=O)CN(C)C(=O)/C=C/CN3CCC3)c2)c(C(N)=O)nc1CC [Compound 519]    7.00 to 8.00
CCc1nc(C(N)=O)c(Nc2cccc([C@@H](C)CNC(=O)CN(C)C(=O)/C=C/CN3CCC3)c2)nc1C1CC1 [Compound 506]    > 9.00
